- test target: MCF-7, epithelial (breast cancer)
- protocol description: Viability assay (MTT, Alamar Blue, hexosaminidase), 72 h
- Assay type: cell-based
pEC50: −log10 of the molar value. Ends that are not written are not given here.

substance: RQRRNELKRSFFALRDQ [IDP-L11, RQRRNELKRSFFALRDQ]
pEC50: < 4.00
//
substance: NELKRSFFALRDQ-OH [IDP-L10, NELKRSFFALRDQ]
pEC50: < 4.00

###

- test target: RAMOS, B lymphocyte (Burkitt's Lymphoma)
- protocol description: Viability assay (MTT, Alamar Blue, hexosaminidase), 72 h
- Format: cell-based
Ends that are not written are not given here.

substance: RQRRNELKRSFFALRDQ [IDP-L11, RQRRNELKRSFFALRDQ]
EC50: > 100 µM
--
substance: NELKRSFFALRDQ-OH [IDP-L10, NELKRSFFALRDQ]
EC50: > 100 µM
